- target-under-test: UniProt:P25929
- Sequence (P25929 whole entry): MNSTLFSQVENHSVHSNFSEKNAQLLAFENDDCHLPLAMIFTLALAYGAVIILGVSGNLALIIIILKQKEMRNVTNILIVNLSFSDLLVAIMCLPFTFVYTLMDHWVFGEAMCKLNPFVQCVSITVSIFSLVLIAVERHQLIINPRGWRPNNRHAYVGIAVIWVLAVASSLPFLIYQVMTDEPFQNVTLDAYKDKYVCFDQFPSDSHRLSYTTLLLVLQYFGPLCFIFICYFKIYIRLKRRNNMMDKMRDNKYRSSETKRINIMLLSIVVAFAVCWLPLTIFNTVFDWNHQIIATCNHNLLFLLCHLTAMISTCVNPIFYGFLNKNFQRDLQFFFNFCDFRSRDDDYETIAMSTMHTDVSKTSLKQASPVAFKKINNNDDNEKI
- measurement-description: Displacement of [125]peptide YY from human recombinant Y1 receptor expressed in CHO cells
The entries below come with measured pIC50 values attached.
Reminder that pIC50 means the negative base-10 logarithm of the concentration expressed in mol/L.

O=C(c1cc(Oc2ccc(Cl)cc2)c2c(c1)c1ccccc1n2C[C@@H]1CCNC[C@H]1F)N1CCN(C2CC2)CC1 = 6.06
CN1CCN(C(=O)c2cc(Oc3ccc(Cl)cc3)c3c(c2)c2ccccc2n3CC2CCNCC2)CC1 = 7.80
CN1CCN(C(=O)c2cc(Oc3ccc(Cl)cc3)c3c(c2)c2ccccc2n3CC2=C(F)CNCC2)CC1 = 7.37

Note to self: pIC50 recorded for CN1CCCC1CCNC(=O)c1cc(Oc2ccc(Cl)cc2)c2c(c1)c1ccccc1n2C[C@@H]1CCNC[C@H]1F (stereo not given in full) was 5.73

Note to self: pIC50 recorded for `CN(C)CCN(C)C(=O)c1cc(Oc2ccc(Cl)cc2)c2c(c1)c1ccccc1n2C[C@@H]1CCNC[C@H]1F` was 6.72

Note to self: pIC50 recorded for `CN(C)C(=O)c1cc(Oc2ccc(Cl)cc2)c2c(c1)c1ccccc1n2C[C@@H]1CCNC[C@H]1F` was 4.92

Note to self: pIC50 recorded for `CN1CCN(C(=O)c2cc(Oc3ccc(Cl)cc3)c3c(c2)c2ccccc2n3C[C@@H]2CCN(C)C[C@@H]2F)CC1` was 7.55

Note to self: pIC50 recorded for `CN1CCN(C(=O)c2cc(Oc3ccc(Cl)cc3)c3c(c2)c2ccccc2n3CC2CCN(CC(=O)N(C)C)CC2)CC1` was 7.85

Note to self: pIC50 recorded for `CN1CCN(C(=O)c2cc(Oc3ccc(Cl)cc3)c3c(c2)c2ccccc2n3C[C@@H]2CCNC[C@@H]2F)CC1` was 7.29
